Target or system Coagulation factor X (Homo sapiens, UniProt P00742); recorded quantity Ki.

molecule: CN(C)Cc1nccn1-c1ccc(N2CCCC(NS(=O)(=O)c3ccc4cc(Cl)ccc4c3)C2=O)c(F)c1 (stereo not drawn)
system: Coagulation factor X (Homo sapiens, UniProt P00742)
Sequence (P00742 41-179 limits assumed): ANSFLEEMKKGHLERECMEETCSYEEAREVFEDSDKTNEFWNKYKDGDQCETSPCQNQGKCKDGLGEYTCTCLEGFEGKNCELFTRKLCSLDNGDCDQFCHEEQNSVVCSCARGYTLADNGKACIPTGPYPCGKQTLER
Sequence (P00742 235-488 limits assumed): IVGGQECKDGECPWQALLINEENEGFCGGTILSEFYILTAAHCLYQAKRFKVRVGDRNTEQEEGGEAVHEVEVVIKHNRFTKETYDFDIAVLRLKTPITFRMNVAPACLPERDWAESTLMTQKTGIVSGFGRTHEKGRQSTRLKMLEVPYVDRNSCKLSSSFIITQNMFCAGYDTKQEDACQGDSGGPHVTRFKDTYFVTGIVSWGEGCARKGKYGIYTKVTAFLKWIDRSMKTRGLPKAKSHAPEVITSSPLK
Ki (nM): 2.4
--
molecule: CS(=O)(=O)c1ccccc1-c1ccc(N2CCCC(N(CC(=O)O)S(=O)(=O)c3ccc4cc(Cl)ccc4c3)C2=O)c(F)c1 (stereo not drawn)
system: Coagulation factor X (Homo sapiens, UniProt P00742)
Ki (nM): 1
--
molecule: CS(=O)(=O)c1ccccc1-c1ccc(N2CCCC(NS(=O)(=O)c3cccc4ccc(Cl)cc34)C2=O)c(F)c1 (stereo not drawn)
system: Coagulation factor X (Homo sapiens, UniProt P00742)
Ki (nM): 18
--
molecule: CS(=O)(=O)c1ccccc1-c1ccc(N2CCCC(NS(=O)(=O)Cc3ccccc3)C2=O)c(F)c1 (stereo not drawn)
system: Coagulation factor X (Homo sapiens, UniProt P00742)
Ki (nM): 3200
--
molecule: CN(C)CCN(C)C(=O)CN([C@H]1CCCN(c2ccc(-n3ccccc3=O)cc2F)C1=O)S(=O)(=O)c1ccc2cc(Cl)ccc2c1
system: Coagulation factor X (Homo sapiens, UniProt P00742)
Ki (nM): 0.016
--
molecule: CS(=O)(=O)c1ccccc1-c1ccc(N2CCCC(NS(=O)(=O)c3ccc4ncccc4c3)C2=O)c(F)c1 (stereo not drawn)
system: Coagulation factor X (Homo sapiens, UniProt P00742)
Ki (nM): 73
--
molecule: COC(=O)C[N+](C)(C)Cc1nccn1-c1ccc(N2CCCC(NS(=O)(=O)c3ccc4cc(Cl)ccc4c3)C2=O)c(F)c1 (stereo not drawn)
system: Coagulation factor X (Homo sapiens, UniProt P00742)
Ki (nM): 0.35
--
molecule: NC(=O)CN(C1CCCN(c2ccc(-n3ccccc3=O)cc2)C1=O)S(=O)(=O)c1cc2ccc(Cl)nc2s1 (stereo not drawn)
system: Coagulation factor X (Homo sapiens, UniProt P00742)
Ki (nM): 0.1
--
molecule: CS(=O)(=O)c1ccccc1-c1ccc(N2CCCC(N(CCCO)S(=O)(=O)c3ccc4cc(Cl)ccc4c3)C2=O)c(F)c1 (stereo not drawn)
system: Coagulation factor X (Homo sapiens, UniProt P00742)
Ki (nM): 2.3
--
molecule: CS(=O)(=O)c1ccccc1-c1ccc(N2CCCC(NS(=O)(=O)c3ccc(Cl)cc3)C2=O)c(F)c1 (stereo not drawn)
system: Coagulation factor X (Homo sapiens, UniProt P00742)
Ki (nM): 23
--
molecule: CN(C)CCN(C)C(=O)CN(C1CCCN(c2ccc(-n3ccccc3=O)cc2F)C1=O)S(=O)(=O)c1ccc2cc(Cl)ccc2c1 (stereo not drawn)
system: Coagulation factor X (Homo sapiens, UniProt P00742)
Ki (nM): 0.02
--
molecule: CS(=O)(=O)c1ccccc1-c1ccc(N2CCCC(NS(=O)(=O)c3ccc4cn[nH]c4c3)C2=O)c(F)c1 (stereo not drawn)
system: Coagulation factor X (Homo sapiens, UniProt P00742)
Ki (nM): 19
--
molecule: COC(=O)CN(C1CCCN(c2ccc(-c3ccccc3S(C)(=O)=O)cc2F)C1=O)S(=O)(=O)c1ccc2cc(Cl)ccc2c1 (stereo not drawn)
system: Coagulation factor X (Homo sapiens, UniProt P00742)
Ki (nM): 0.88
--
molecule: O=C1C(NS(=O)(=O)c2ccc3cc(Cl)ccc3c2)CCCN1c1ccc(-c2ccncc2)cc1F (stereo not drawn)
system: Coagulation factor X (Homo sapiens, UniProt P00742)
Ki (nM): 28
--
molecule: CCc1ccc(S(=O)(=O)NC2CCCN(c3ccc(-c4ccccc4S(C)(=O)=O)cc3F)C2=O)cc1 (stereo not drawn)
system: Coagulation factor X (Homo sapiens, UniProt P00742)
Ki (nM): 78
--
molecule: COc1ccc(C(=O)NC2CCCN(c3ccc(-c4ccccc4S(C)(=O)=O)cc3F)C2=O)cc1 (stereo not drawn)
system: Coagulation factor X (Homo sapiens, UniProt P00742)
Ki (nM): 560
--
molecule: CS(=O)(=O)c1ccccc1-c1ccc(N2CCCC(NS(=O)(=O)c3ccccc3)C2=O)c(F)c1 (stereo not drawn)
system: Coagulation factor X (Homo sapiens, UniProt P00742)
Ki (nM): 370
--
molecule: CN(C)CCN(C)C(=O)CN(C1CCCN(c2ccc(-n3ccccc3=O)cc2F)C1=O)S(=O)(=O)c1cc2ccc(Cl)nc2s1 (stereo not drawn)
system: Coagulation factor X (Homo sapiens, UniProt P00742)
Ki (nM): 0.013
--
molecule: CS(=O)(=O)c1ccccc1-c1ccc(N2CCCC(NS(=O)(=O)c3cnc4ccccc4c3)C2=O)c(F)c1 (stereo not drawn)
system: Coagulation factor X (Homo sapiens, UniProt P00742)
Ki (nM): 28
--
molecule: CS(=O)(=O)c1ccccc1-c1ccc(N2CCCC(NS(=O)(=O)c3ccc(-c4ccon4)s3)C2=O)c(F)c1 (stereo not drawn)
system: Coagulation factor X (Homo sapiens, UniProt P00742)
Ki (nM): 26
--
molecule: CS(=O)(=O)c1ccccc1-c1ccc(N2CCCC(NS(=O)(=O)c3ccc(N)nc3)C2=O)c(F)c1 (stereo not drawn)
system: Coagulation factor X (Homo sapiens, UniProt P00742)
Ki (nM): 260
--
molecule: CS(=O)(=O)c1ccccc1-c1ccc(N2CCCC(NS(=O)(=O)c3ccc4onc(N)c4c3)C2=O)c(F)c1 (stereo not drawn)
system: Coagulation factor X (Homo sapiens, UniProt P00742)
Ki (nM): 19
--
molecule: CS(=O)(=O)c1ccccc1-c1ccc(N2CCCC(NS(=O)(=O)c3ccc(Cl)c(Cl)c3)C2=O)c(F)c1 (stereo not drawn)
system: Coagulation factor X (Homo sapiens, UniProt P00742)
Ki (nM): 61
